All values here come from BindingDB's records for doi:10.1016/s0960-894x(01)00689-8.

Below are Ki values measured for Mu-type opioid receptor (Rattus norvegicus, UniProt P33535).
Entry rule: numbers only, all in nM.

Can you look up the measured Ki of C[C@H]1c2c([nH]c3ccccc23)[C@@H]2Oc3c(O)ccc4c3C23CCN(C)C(C4)C13 (stereo partly specified) [Indole Derivative] for me? 240

Next: C[C@H]1c2c([nH]c3ccccc23)[C@@H]2Oc3c(O)ccc4c3C23CCN(CC2CC2)C(C4)C13 (stereo partly specified) 66

Next: CCCC[C@H]1c2c([nH]c3ccccc23)[C@@H]2Oc3c(O)ccc4c3C23CCN(C)C(C4)C13 (stereo partly specified) [Indole Derivative] 1100
